assayed target: HIV-1 pseudovirus SC05.8C11.2344 (HIV-1)
procedure details: cell-based or functional assay
property measured: IC80 (neutralization in TZM.bl cells) (µg/mL)
Supply the numeric figure in µg/mL, leaving out any unit text.

Example results:
binder="MS-79 (antibody, V domains shown) VH: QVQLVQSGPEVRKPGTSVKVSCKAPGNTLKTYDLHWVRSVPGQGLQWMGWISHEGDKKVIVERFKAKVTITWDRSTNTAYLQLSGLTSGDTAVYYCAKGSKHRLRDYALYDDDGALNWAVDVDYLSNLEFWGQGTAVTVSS VL: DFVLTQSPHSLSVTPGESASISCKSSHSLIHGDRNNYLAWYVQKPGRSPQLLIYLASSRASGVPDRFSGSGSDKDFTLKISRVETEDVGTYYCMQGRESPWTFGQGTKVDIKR" quantitative_result=1.97
binder="MS-84 (antibody, V domains shown) VH: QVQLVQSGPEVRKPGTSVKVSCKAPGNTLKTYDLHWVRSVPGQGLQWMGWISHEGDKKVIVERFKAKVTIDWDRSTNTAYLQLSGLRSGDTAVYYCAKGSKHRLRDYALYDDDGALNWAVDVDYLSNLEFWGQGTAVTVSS VL: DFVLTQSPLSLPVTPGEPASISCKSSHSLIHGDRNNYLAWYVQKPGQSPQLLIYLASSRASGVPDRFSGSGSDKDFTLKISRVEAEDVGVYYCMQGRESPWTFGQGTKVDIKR" quantitative_result=1.74
binder="MS-80 (antibody, V domains shown) VH: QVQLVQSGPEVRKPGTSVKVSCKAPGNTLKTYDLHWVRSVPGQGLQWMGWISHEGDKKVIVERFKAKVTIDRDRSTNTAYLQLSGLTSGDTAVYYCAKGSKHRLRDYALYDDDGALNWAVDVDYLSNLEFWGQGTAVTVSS VL: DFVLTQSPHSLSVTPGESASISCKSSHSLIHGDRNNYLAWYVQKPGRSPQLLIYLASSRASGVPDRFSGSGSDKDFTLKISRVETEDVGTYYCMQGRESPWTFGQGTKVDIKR" quantitative_result=3.15
binder="MS-87 (antibody, V domains shown) VH: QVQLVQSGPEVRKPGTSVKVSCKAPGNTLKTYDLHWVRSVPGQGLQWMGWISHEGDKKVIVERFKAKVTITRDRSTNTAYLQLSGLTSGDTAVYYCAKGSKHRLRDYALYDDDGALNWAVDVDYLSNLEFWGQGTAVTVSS VL: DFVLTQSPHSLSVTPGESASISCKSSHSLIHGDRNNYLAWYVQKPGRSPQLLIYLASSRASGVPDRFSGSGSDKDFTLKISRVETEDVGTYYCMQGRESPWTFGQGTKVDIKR" quantitative_result=5.17
binder="MS-72 (antibody, V domains shown) VH: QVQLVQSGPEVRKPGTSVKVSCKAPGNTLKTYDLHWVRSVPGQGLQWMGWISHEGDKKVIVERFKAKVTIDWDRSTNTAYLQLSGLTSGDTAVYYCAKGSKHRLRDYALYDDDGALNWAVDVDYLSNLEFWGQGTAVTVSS VL: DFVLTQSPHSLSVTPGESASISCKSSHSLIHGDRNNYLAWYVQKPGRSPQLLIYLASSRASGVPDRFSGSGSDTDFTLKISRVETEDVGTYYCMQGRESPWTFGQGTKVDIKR" quantitative_result=2.85
binder="MS-77 (antibody, V domains shown) VH: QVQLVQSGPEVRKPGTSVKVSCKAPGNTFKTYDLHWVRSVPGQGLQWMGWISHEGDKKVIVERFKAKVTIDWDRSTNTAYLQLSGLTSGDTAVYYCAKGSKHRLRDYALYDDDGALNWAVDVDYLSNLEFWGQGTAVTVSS VL: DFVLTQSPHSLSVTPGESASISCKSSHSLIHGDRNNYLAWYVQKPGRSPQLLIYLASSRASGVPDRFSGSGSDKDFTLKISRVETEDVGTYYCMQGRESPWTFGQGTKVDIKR" quantitative_result=2.41
binder="MS-83 (antibody, V domains shown) VH: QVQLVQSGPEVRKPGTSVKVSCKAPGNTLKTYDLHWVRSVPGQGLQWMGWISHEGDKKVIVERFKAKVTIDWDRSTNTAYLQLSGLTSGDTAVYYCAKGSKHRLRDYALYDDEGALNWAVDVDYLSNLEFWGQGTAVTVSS VL: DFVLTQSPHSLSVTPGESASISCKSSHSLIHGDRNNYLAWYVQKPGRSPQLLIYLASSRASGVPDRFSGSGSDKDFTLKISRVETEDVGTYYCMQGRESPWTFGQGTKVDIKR" quantitative_result=1.88
binder="MS-74 (antibody, V domains shown) VH: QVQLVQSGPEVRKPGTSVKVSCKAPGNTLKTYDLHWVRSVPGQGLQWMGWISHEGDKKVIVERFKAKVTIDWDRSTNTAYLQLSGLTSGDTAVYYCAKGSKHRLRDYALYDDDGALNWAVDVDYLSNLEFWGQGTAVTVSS VL: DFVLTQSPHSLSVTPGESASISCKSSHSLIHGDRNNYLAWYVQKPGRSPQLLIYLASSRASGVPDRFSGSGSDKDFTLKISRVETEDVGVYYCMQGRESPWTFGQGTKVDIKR" quantitative_result=1.94

Turning to the following binder.
For reference, reported IC80 (neutralization in TZM.bl cells) for MS-81 (antibody, V domains shown) VH: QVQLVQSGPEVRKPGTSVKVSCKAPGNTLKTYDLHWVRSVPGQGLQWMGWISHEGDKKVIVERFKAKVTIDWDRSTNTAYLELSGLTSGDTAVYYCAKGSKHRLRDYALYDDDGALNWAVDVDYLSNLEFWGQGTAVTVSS VL: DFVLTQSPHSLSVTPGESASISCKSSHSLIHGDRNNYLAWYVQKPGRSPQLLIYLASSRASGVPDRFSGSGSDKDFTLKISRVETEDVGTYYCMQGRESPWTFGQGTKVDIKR stands at 2.01
